settings: in ethanol, 288.15 K
Measured quantity: solubility (mole fraction)
In your answer, state the number alone without any accompanying words.

Given NC(=O)Nc1ccccc1 , state its recorded solubility (mole fraction).
0.0272

###

details: in isopropanol, 303.15 K
Measured quantity: solubility (mole fraction)
In your answer, state the number alone without any accompanying words.

Given NC(=O)Nc1ccccc1 , state its recorded solubility (mole fraction).
0.0198

###

settings: in NMP, 303.15 K
Measured quantity: solubility (mole fraction)
In your answer, state the number alone without any accompanying words.

Given NC(=O)Nc1ccccc1 , state its recorded solubility (mole fraction).
0.0787

###

settings: in water, 308.15 K
Measured quantity: solubility (mole fraction)
In your answer, state the number alone without any accompanying words.

Given NC(=O)Nc1ccccc1 , state its recorded solubility (mole fraction).
0.00124

###

conditions: in n-propanol, 283.15 K
Measured quantity: solubility (mole fraction)
In your answer, state the number alone without any accompanying words.

Given NC(=O)Nc1ccccc1 , state its recorded solubility (mole fraction).
0.02

###

conditions: in 1,2-dichloroethane, 283.15 K
Measured quantity: solubility (mole fraction)

Given NC(=O)Nc1ccccc1 , state its recorded solubility (mole fraction).
0.000433

###

conditions: in ethylene glycol, 318.15 K
Measured quantity: solubility (mole fraction)
In your answer, state the number alone without any accompanying words.

Given NC(=O)Nc1ccccc1 , state its recorded solubility (mole fraction).
0.0882

###

conditions: in acetonitrile, 323.15 K
Measured quantity: solubility (mole fraction)
In your answer, state the number alone without any accompanying words.

Given NC(=O)Nc1ccccc1 , state its recorded solubility (mole fraction).
0.0318

###

conditions: in ethyl acetate, 303.15 K
Measured quantity: solubility (mole fraction)
In your answer, state the number alone without any accompanying words.

Given NC(=O)Nc1ccccc1 , state its recorded solubility (mole fraction).
0.0309

###

settings: in DMF, 313.15 K
Measured quantity: solubility (mole fraction)

Given NC(=O)Nc1ccccc1 , state its recorded solubility (mole fraction).
0.266

###

settings: in water, 293.15 K
Measured quantity: solubility (mole fraction)
In your answer, state the number alone without any accompanying words.

Given NC(=O)Nc1ccccc1 , state its recorded solubility (mole fraction).
0.000649

###

conditions: in 1,4-dioxane, 303.15 K
Measured quantity: solubility (mole fraction)

Given NC(=O)Nc1ccccc1 , state its recorded solubility (mole fraction).
0.022

###

conditions: in 1,4-dioxane, 298.15 K
Measured quantity: solubility (mole fraction)
In your answer, state the number alone without any accompanying words.

Given NC(=O)Nc1ccccc1 , state its recorded solubility (mole fraction).
0.0183

###

settings: in DMF, 288.15 K
Measured quantity: solubility (mole fraction)
In your answer, state the number alone without any accompanying words.

Given NC(=O)Nc1ccccc1 , state its recorded solubility (mole fraction).
0.212

###

conditions: in DMSO, 323.15 K
Measured quantity: solubility (mole fraction)
In your answer, state the number alone without any accompanying words.

Given NC(=O)Nc1ccccc1 , state its recorded solubility (mole fraction).
0.262

###

conditions: in isopropanol, 298.15 K
Measured quantity: solubility (mole fraction)
In your answer, state the number alone without any accompanying words.

Given NC(=O)Nc1ccccc1 , state its recorded solubility (mole fraction).
0.0164

###

conditions: in water, 283.15 K
Measured quantity: solubility (mole fraction)
In your answer, state the number alone without any accompanying words.

Given NC(=O)Nc1ccccc1 , state its recorded solubility (mole fraction).
0.000409

###

conditions: in water, 313.15 K
Measured quantity: solubility (mole fraction)
In your answer, state the number alone without any accompanying words.

Given NC(=O)Nc1ccccc1 , state its recorded solubility (mole fraction).
0.0015

###

conditions: in ethylene glycol, 313.15 K
Measured quantity: solubility (mole fraction)
In your answer, state the number alone without any accompanying words.

Given NC(=O)Nc1ccccc1 , state its recorded solubility (mole fraction).
0.0774

###

conditions: in ethyl acetate, 318.15 K
Measured quantity: solubility (mole fraction)
In your answer, state the number alone without any accompanying words.

Given NC(=O)Nc1ccccc1 , state its recorded solubility (mole fraction).
0.0549

###

settings: in n-propanol, 313.15 K
Measured quantity: solubility (mole fraction)
In your answer, state the number alone without any accompanying words.

Given NC(=O)Nc1ccccc1 , state its recorded solubility (mole fraction).
0.0539

###

conditions: in ethyl acetate, 308.15 K
Measured quantity: solubility (mole fraction)
In your answer, state the number alone without any accompanying words.

Given NC(=O)Nc1ccccc1 , state its recorded solubility (mole fraction).
0.0384

###

settings: in ethylene glycol, 308.15 K
Measured quantity: solubility (mole fraction)
In your answer, state the number alone without any accompanying words.

Given NC(=O)Nc1ccccc1 , state its recorded solubility (mole fraction).
0.0681

###

details: in acetonitrile, 303.15 K
Measured quantity: solubility (mole fraction)
In your answer, state the number alone without any accompanying words.

Given NC(=O)Nc1ccccc1 , state its recorded solubility (mole fraction).
0.0135
